- ASSAY_PROTOCOL: Water solubility studies by the present inventors
- EXPERIMENTAL_SETUP: water
ASSAY_ENDPOINT: solubility

>  <COMPOUND>
CC[C@@]1(O)C(=O)OCc2c1cc1n(c2=O)Cc2cc3ccccc3nc2-1 [Camptothecin]

>  <RESULT_VALUE>
< 2 µg/mL

$$$$

---

- ASSAY_PROTOCOL: physchem
- EXPERIMENTAL_SETUP: pH 7.4, aqueous buffer
ASSAY_ENDPOINT: solubility

>  <COMPOUND>
CN(Cc1cnc2nc(N)nc(N)c2n1)c1ccc(C(=O)N[C@@H](CCC(=O)O)C(=O)O)cc1 [methotrexate]

>  <RESULT_VALUE>
> 500 µg/mL

$$$$

---

- ASSAY_PROTOCOL: Water solubility studies by the present inventors
- EXPERIMENTAL_SETUP: water, water solubility

>  <COMPOUND>
O=c1c(-c2ccc(O)cc2)coc2cc(O)cc(O)c12 [Genistein]

>  <solubility>
< 2 µg/mL

$$$$

---

- ASSAY_PROTOCOL: Water solubility studies by the present inventors
- EXPERIMENTAL_SETUP: pH 7.4, aqueous buffer, water solubility in PBS/albumin, PBS/albumin (pH 7.4)
ASSAY_ENDPOINT: solubility

>  <COMPOUND>
COc1cc2c(c(OC)c1OC)-c1ccc(OC)c(=O)cc1[C@@H](NC(C)=O)CC2 [colchicine]

>  <RESULT_VALUE>
> 500 µg/mL

$$$$

The measured values listed here are drawn from patent US20050042293A1.
